experiment: chemical genetic growth profiling, strain panel (AID 1159580);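 also: tested at 20 µM; growth read once vehicle control cultures reached saturation at 30 °C; 1 = growth at the plate median or of vehicle wells; lower values mean less growth of the strain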; conditions: S. cerevisiae deletion strains, growth OD, locus YNL207W, strain RIO2
Hit rate of the full screen: of about 5,500 compounds, about 2,000 (36%) were called active. About 18% were inconclusive and are not listed. Rule as the data show it: active = normalized growth mostly below about 0.91 (no sharp cut-off); inconclusive = no clear call, values can overlap the other calls; inactive = mostly above about 0.92. The list shows a part of the results.
Could you please pick one outcome from this set? active, inactive

| Mol smiles | Label |
| --- | --- |
| c1ccc(-c2nnc(-c3ccccn3)nc2-c2ccccc2)cc1 | active |

Per the assay record, what outcome was assigned to COc1ccccc1NC(=S)N/N=C\c1ccccc1O ?
inactive

Per the assay record, what outcome was assigned to CCOC(=O)N/N=C\c1cc(Cl)cc(Cl)c1O ?
inactive

Per the assay record, what outcome was assigned to Cc1cc(Cl)ccc1NNC(=O)c1sccc1Cl ?
inactive

Per the assay record, what outcome was assigned to CCCCNC(=S)N/N=C\c1cc(Cl)cc(Cl)c1O ?
inactive

Per the assay record, what outcome was assigned to OC(COc1ccc(F)cc1)(c1ccccc1)c1ccccc1 ?
inactive

Per the assay record, what outcome was assigned to O=C(NNc1ccc(F)cc1F)c1sccc1Cl ?
inactive

Per the assay record, what outcome was assigned to Cc1cc(Cl)ccc1NNC(=O)c1sccc1Br ?
inactive

Per the assay record, what outcome was assigned to Cc1cc(Oc2ccc(C(F)(F)F)cc2NS(C)(=O)=O)cc(C)c1Cl ?
inactive

Per the assay record, what outcome was assigned to CC(C)(C)NC(=S)N/N=C\c1ccccc1O ?
inactive

Per the assay record, what outcome was assigned to Cc1ccc(C)n1-c1ccc(/C=C2/C(=O)Nc3ccccc32)cc1 ?
inactive

Per the assay record, what outcome was assigned to O=[N+]([O-])c1cc(Cl)cc([N+](=O)[O-])c1Nc1ccccc1 ?
inactive

###

experiment: chemical genetic growth profiling, strain panel (AID 1159580); conditions: S. cerevisiae deletion strains, growth OD, locus YDL101C, strain DUN1
The campaign covered roughly 5,500 compounds. About 2,000 (36%) were called active. Not shown: some 18% with an inconclusive outcome. Rule as the data show it: active = normalized growth mostly below about 0.91 (no sharp cut-off); inconclusive = no clear call, values can overlap the other calls; inactive = mostly above about 0.92. The list shows a part of the results.
Could you please pick one outcome from this set? active, inactive

| Molecule | Label |
| --- | --- |
| CCC(N)C(O)c1ccc(O)c(O)c1 (stereo not drawn) | inactive |

Per the assay record, what outcome was assigned to CC/C(=C(/CC)c1ccc(O)cc1)c1ccc(O)cc1 ?
inactive

Per the assay record, what outcome was assigned to CC(C)N(CCC(C(N)=O)(c1ccccc1)c1ccccn1)C(C)C (stereo not drawn) ?
inactive

Per the assay record, what outcome was assigned to CN(C)c1nc(N)c(C(=O)N=C(N)N)nc1Cl ?
inactive

Per the assay record, what outcome was assigned to CC(C)c1c(O)ccc2c1CCC1[C@@](C)(CO)CCC[C@]21C (stereo partly drawn) ?
inactive

Per the assay record, what outcome was assigned to COc1cc(OC)c2c(=O)c(OC)c(-c3ccc(OC)c(OC)c3)oc2c1 ?
inactive

Per the assay record, what outcome was assigned to COc1cc(OC)c2c(=O)c(O)c(-c3ccc(OC)c(OC)c3)oc2c1 ?
active

Per the assay record, what outcome was assigned to COc1ccc2c(c1C(C)C)CCC1C(C)(C)C(=O)CCC21C (stereo not drawn) ?
inactive

Per the assay record, what outcome was assigned to O=c1c(O)c(-c2cc(O)c(O)c(O)c2)oc2cc(O)cc(O)c12 ?
inactive

Per the assay record, what outcome was assigned to C/C(=N/NC(=S)Nc1ccc(C(C)C)cc1)c1ccco1 ?
inactive

Per the assay record, what outcome was assigned to C[C@@H]1CC[C@@]2(OC1)O[C@H]1CC3C4CC[C@H]5C[C@@H](O)CC[C@]5(C)C4CC[C@]3(C)[C@H]1[C@@H]2C (stereo partly drawn) ?
inactive

Per the assay record, what outcome was assigned to CCOCN(C(=O)CCl)c1c(C)cccc1CC ?
inactive

###

test: chemical genetic growth profiling, strain panel (AID 1159580); settings: S. cerevisiae deletion strains, growth OD, locus YHR027C, strain rpn1, stronger effect = lower value
The whole screen tested about 5,500 compounds, of which about 2,000 (36%) were called active. About 18% were inconclusive and are not listed. Some of the results follow.
Please go through the items and note down their normalized growth.
Give bare numbers.

Here is how some molecules turned out for normalized growth.
| Molecule | Readout | Result |
| --- | --- | --- |
| CC(C)N(CCC(C(N)=O)(c1ccccc1)c1ccccn1)C(C)C (stereo not drawn) | normalized growth | 0.0639 |
| O=c1c(O)c(-c2ccc(O)c(O)c2)oc2c(O)c(O)cc(O)c12 | normalized growth | 0.983 |
| CC1(C)C2CC(=O)[C@]3(C)C(CC[C@@]4(C)[C@H](c5ccoc5)OC(=O)C5OC543)[C@@]2(C)[C@@H](O)C[C@H]1O (stereo partly drawn) | normalized growth | 0.985 |

Take each entry in turn and give its normalized growth.
1. CC1(C)O[C@H]2CC(=O)OC[C@]23[C@H]2CC[C@@]4(C)[C@H](c5ccoc5)OC(=O)[C@H]5O[C@]54[C@]2(C)C(=O)C[C@@H]13
2. CC(CC(C(N)=O)(c1ccccc1)c1ccccc1)N(C)C (stereo not drawn)
3. Cc1cc(C2CCCCC2)n(O)c(=O)c1
4. CN[C@@H]1C(O)[C@@H](O[C@@H]2[C@@H](O)[C@H](O[C@H]3OC(CN)=CC[C@H]3N)[C@@H](N)C[C@H]2N)OC[C@]1(C)O (stereo partly drawn)
5. CN1C[C@H](C(=O)N[C@]2(C)O[C@@]3(O)[C@@H]4CCCN4C(=O)[C@H](Cc4ccccc4)N3C2=O)C[C@@H]2c3cccc4[nH]cc(c34)C[C@H]21

[0.993, 0.978, 0.0647, 1, 0.967]

###

Please go through the items and note down their normalized growth.
experiment: chemical genetic growth profiling, strain panel (AID 1159580);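 also: tested at 20 µM; growth read once vehicle control cultures reached saturation at 30 °C; 1 = growth at the plate median or of vehicle wells; lower values mean less growth of the strain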; conditions: S. cerevisiae deletion strains, growth OD, locus YJL187C, strain SWE1, stronger effect = lower value
Among all 5,500 compounds or so, about 2,000 (36%) were called active. About 18% were inconclusive and are not listed. The list shows a part of the results.
Answers are plain numbers.

Here is how some compounds turned out for normalized growth.
| Compound | Result |
| --- | --- |
| CC(=O)O[C@@H]1CC2C(C)(C)C(=O)C=C[C@]2(C)C2CC[C@@]3(C)[C@H](c4ccoc4)OC(=O)[C@H]4O[C@]43[C@@]21C (stereo not given in full) | 1.01 |
| CC1(C)C2CC(=O)[C@]3(C)C(CC[C@@]4(C)[C@H](c5ccoc5)OC(=O)C5OC543)[C@@]2(C)[C@@H](O)C[C@H]1O (stereo not given in full) | 1.01 |
| CO[C@@]1(NC(=O)C(C(=O)O)c2ccc(O)cc2)C(=O)N2C(C(=O)O)=C(CSc3nnnn3C)CO[C@@H]21 (stereo not given in full) | 0.986 |

Take each entry in turn and give its normalized growth.
1. CCc1cc(C(N)=S)ccn1
2. CC1(C)O[C@H]2CC(=O)OC[C@]23[C@H]2CC[C@@]4(C)[C@H](c5ccoc5)OC(=O)[C@H]5O[C@]54[C@]2(C)C(=O)C[C@@H]13

1: 1.01; 2: 0.967

###

experiment: chemical genetic growth profiling, strain panel (AID 1159580);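 also: tested at 20 µM; growth read once vehicle control cultures reached saturation at 30 °C; 1 = growth at the plate median or of vehicle wells; lower values mean less growth of the strain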; details: S. cerevisiae deletion strains, growth OD, locus YDR502C, strain sam2, stronger effect = lower value
About 2,000 (36%) of roughly 5,500 compounds were called active. Not shown: some 18% with an inconclusive outcome. The list shows a part of the results.
Decide using normalized growth alone. Strictly below 1: label 1. Equal to or above 1: label 0.

Some solved entries appear below for comparison.
| Compound | Label |
| --- | --- |
| CC(C)c1c(O)ccc2c1CCC1C(C)(C)CCC[C@]21C (stereo partly specified) | label 1 |
| COc1ccccc1/C=C\C(=O)O | label 0 |
| COc1cc(OC)c2c(=O)c(O)c(-c3ccc(OC)c(OC)c3)oc2c1 | label 1 |
| C=C(C)[C@H]1COc2cc3oc(=O)ccc3cc2O1 | label 1 |
| COC(=O)c1c(C)cc(OC)cc1O | label 1 |

Just wondering, is normalized growth of CCOC(=O)c1c(C)cc(O)cc1O below 1?
label 1

###

assay: chemical genetic growth profiling, strain panel (AID 1159580);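 also: tested at 20 µM; growth read once vehicle control cultures reached saturation at 30 °C; 1 = growth at the plate median or of vehicle wells; lower values mean less growth of the strain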; details: S. cerevisiae deletion strains, growth OD, locus YOR290C, strain snf2
Among all 5,500 compounds or so, about 2,000 (36%) were called active. Another 18% or so got no clear call; they are omitted. Cut-off read from the data, not from the text of the source: active = normalized growth mostly below about 0.91 (no sharp cut-off); inconclusive = no clear call, values can overlap the other calls; inactive = mostly above about 0.92. The list shows a part of the results.
Could you please pick one outcome from this set? y for active, n for inactive

| Molecule | Label |
| --- | --- |
| CC1CC[C@@]2(OC1)O[C@H]1CC3C4CC[C@@H]5C[C@@H](O)CC[C@]5(C)C4CC[C@]3(C)[C@H]1[C@@H]2C (stereo partly drawn) | n |
| COc1ccc(-c2oc3c(CC=C(C)C)c(O[C@@H]4O[C@H](CO)[C@@H](O)[C@H](O)[C@H]4O)cc(O)c3c(=O)c2O[C@@H]2O[C@@H](C)[C@H](O)[C@@H](O)[C@H]2O)cc1 | n |
| COc1cccc2c(C)cc(=O)[nH]c12 | n |
| CC(=O)Oc1ccc2c(c1OC(C)=O)OCC1(O)Cc3c(cc(OC(C)=O)c(OC(C)=O)c3OC(C)=O)C21 (stereo not drawn) | n |
| CC(=O)Oc1ccc2c(c1C(C)C)CCC1C(C)(C)CCC[C@]21C (stereo partly drawn) | n |

Now, please, on to the next molecule.
Per the assay record, what outcome was assigned to C[C@H]1O[C@H](OC2[C@@H](O)[C@@H](O)C(O)[C@H](O)[C@H]2O)[C@@H](N)C[C@@H]1N=C(N)C(=O)O (stereo partly drawn) ?
n
